Exercise: for every item that follows, state its recorded % Inhibition.
Tested on: human SMAD7 mRNA
Experiment: Antisense inhibition of human SMAD7 mRNA expression in Hep3B cells by 3-10-3 cEt gapmers, 10,000 nM, electroporation (Example 2)
Type: cell-based
Conditions: SMAD7 mRNA, Hep3B cells, electroporation with 10,000 nM antisense oligonucleotide, approximately 24 hours, primer probe set RTS5062, relative to untreated control cells
Strand notation (5' to 3'): a small letter for the sugar, then the base; units joined by * are phosphorothioate-linked, units joined directly phosphodiester-linked; [ ] holds rarer units or linkages, { } end groups; capitals alone tell only the bases. k = constrained ethyl (cEt); [5mC] = 5-methylcytosine; d = 2'-deoxy (DNA)
Give just the number in %; leave the unit off.

Incoming: Request: % Inhibition, test system human SMAD7 mRNA, entry 829952 (kA*k[5mC]*k[5mC]*d[5mC]*dG*dT*d[5mC]*dT*dG*dG*dG*d[5mC]*dT*k[5mC]*k[5mC]*kG; antisense) [compound 829952]
Outgoing: 2

Incoming: Form field - read-out: % Inhibition; system: human SMAD7 mRNA; submitted item: 829979 (kT*kG*kA*dT*dA*dT*dT*dT*dA*dG*d[5mC]*dT*dG*kT*k[5mC]*kA; antisense) [compound 829979]
Outgoing: 49

Incoming: Please tell me: % Inhibition of 829975 (k[5mC]*kA*kA*dA*dA*dG*dA*dG*dG*d[5mC]*d[5mC]*dG*d[5mC]*k[5mC]*kT*kG; antisense) [compound 829975] , system human SMAD7 mRNA?
Outgoing: 32

---

Assay: Hematology assays after subcutaneous administration in CD-1 mice (Example 6)
Type: in vivo
Design: unit not given here
Details: 50 mg/kg subcutaneous twice weekly for 7 weeks
Strand notation (5' to 3'): a small letter for the sugar, then the base; units joined by * are phosphorothioate-linked, units joined directly phosphodiester-linked; [ ] holds rarer units or linkages, { } end groups; capitals alone tell only the bases. k = constrained ethyl (cEt); [5mC] = 5-methylcytosine; d = 2'-deoxy (DNA)
OBSERVABLE: RBC
Give the value as a plain number.

Incoming: Returns the measured RBC for the input substance. Input: 830121 (AGAATCAAGCCCTGGC; 3-10-3 cEt gapmer, further chemistry not given here) [compound 830121]
Outgoing: 8.9

Incoming: Look at this substance and give its reported RBC. 829994 (GGAGGCAGGGCCGCGA; 3-10-3 cEt gapmer, further chemistry not given here) [compound 829994]
Outgoing: 7.7

Incoming: Entry under review: 790615 (CCAATGAGAATGCTTC; 3-10-3 cEt gapmer, further chemistry not given here) [compound 790615] . Reported RBC?
Outgoing: 10.3

Incoming: # query: RBC of entry 830027 (antisense kA*kA*k[5mC]*d[5mC]*dA*dT*dT*dT*dA*dT*d[5mC]*dT*dG*kG*kT*kG) [compound 830027]
Outgoing: 9.7

Incoming: Dear colleague, I am looking for the recorded RBC of the following substance: 799144 (antisense kT*kT*kG*dG*dG*dT*dT*dA*dT*dG*dA*d[5mC]*dG*kG*kA*k[5mC]) [compound 799144]
Outgoing: 9.5

Incoming: Looking for the measured RBC of 830025 (antisense TTTGTAAATCGAAAGC; 3-10-3 cEt gapmer, further chemistry not given here) [compound 830025] , can you help?
Outgoing: 8.0

Incoming: Value lookup for RBC; key = 798781 (CGTAAGATTCACAGCA; 3-10-3 cEt gapmer, further chemistry not given here) [compound 798781]
Outgoing: 9.3
